# methodDescription: Inhibition of mitochondrial glycerol 3-phosphate acyltransferase by liquid scintillation counting
measurementType: log10 of IC50 (log10 of the value in µM)

1) CCCCCCCCCS(=O)(=O)Nc1ccccc1C(=O)O :: 1.39
2) CCCCCS(=O)(=O)NCc1ccc(C(=O)O)cc1 :: 2.40
3) O=C(O)c1cccc(NS(=O)(=O)c2ccccc2)c1 :: 2.14
4) CCCCCCCCCCCCCCS(=O)(=O)Nc1ccccc1C(=O)O :: 1.24
5) CCCCCCCCCCCCCCCCS(=O)(=O)Nc1ccccc1C(=O)O :: 1.26
6) O=C(O)c1ccccc1NS(=O)(=O)c1ccccc1 :: 2.16
7) CCCCCCCCCS(=O)(=O)Nc1ccc(CP(=O)(O)O)cc1 :: 1.91
8) O=C(O)c1ccc(NS(=O)(=O)CCc2ccccc2)cc1 :: 2.31
9) O=C(O)c1cccc(NS(=O)(=O)CCc2ccccc2)c1 :: 2.21
10) CCCCCCCCCS(=O)(=O)NCc1cccc(C(=O)O)c1 :: 1.92
11) CS(=O)(=O)Nc1ccccc1C(=O)O :: 2.12
12) O=C(O)c1cccc(NS(=O)(=O)c2ccc(Cl)cc2)c1 :: 1.88

FYI, the data here is from ChEMBL document CHEMBL1138497.
